Every entry's value here was drawn from ChEMBL document CHEMBL4680339.

# Tested on: HepG2
# PROTOCOL TEXT: Antiproliferative activity against human HepG2 cells assessed as reduction in cell growth incubated for 72 hrs by MTT assay
# Assay type: functional, cell-based
# EXPERIMENTAL CONTEXT: HepG2, 72 h
The following molecules are shown together with reported IC50 values.
Give your result in µM as a bare value.

Recorded IC50, per entry:
COc1ccc2c(N(C)c3cc(OC)c(OC)c(OC)c3)n[nH]c2n1; 4.79
COc1ccc2c(N(CC3CC3)c3cc(OC)c(OC)c(OC)c3)n[nH]c2n1; 5.46

Now consider a different molecule.
// IC50 value for "COc1ccc2c(N(C)c3cc(OC)c(OC)c(OC)c3)nn(C)c2n1" : 2.52

====

# System: MCF7
# PROTOCOL TEXT: Antiproliferative activity against human MCF7 cells assessed as reduction in cell growth incubated for 72 hrs by MTT assay
# Assay type: functional, cell-based
# EXPERIMENTAL CONTEXT: MCF7, 72 h
Recorded IC50 split into classes b0 = under 0.8 µM, b1 = from 0.8 µM up to 10 µM, b2 = 10 µM and over

Recorded results for 3 compounds are shown here.
COc1ccc2c(Nc3cc(OC)c(OC)c(OC)c3)nn(-c3ccccc3)c2n1; b2
COCCN(c1cc(OC)c(OC)c(OC)c1)c1n[nH]c2nc(OC)ccc12; b1
COc1ccc2c(N(c3cc(OC)c(OC)c(OC)c3)C(C)C)n[nH]c2n1; b2

Categorize the following entry: "COc1ccc(/C=C\c2cc(OC)c(OC)c(OC)c2)cc1O"
b0

Categorize the following entry: "COc1ccc2c(N(C)c3cc(OC)c(OC)c(OC)c3)nn(C)c2n1"
b2

====

# System: HepG2
# PROTOCOL TEXT: Antiproliferative activity against human HepG2 cells assessed as reduction in cell growth incubated for 72 hrs by MTT assay
# Assay type: functional, cell-based
# EXPERIMENTAL CONTEXT: HepG2, 72 h
MEASURED ATTRIBUTE: pIC50
The meaning of pIC50 here: minus log10 of the concentration in molar units.

Recorded pIC50, per entry:
COc1ccc2c(N(CCF)c3cc(OC)c(OC)c(OC)c3)n[nH]c2n1; 5.24
COc1ccc2c(Nc3cc(OC)c(OC)c(OC)c3)nn(C)c2n1; 5.20
COc1ccc2c(Nc3cc(OC)c(OC)c(OC)c3)nn(-c3ccccc3)c2n1; 4.41
COc1ccc2c(N(c3cc(OC)c(OC)c(OC)c3)C(C)C)n[nH]c2n1; 4.61
COc1ccc2c(N(CC(F)F)c3cc(OC)c(OC)c(OC)c3)n[nH]c2n1; 4.73
CCN(c1cc(OC)c(OC)c(OC)c1)c1n[nH]c2nc(OC)ccc12; 5.02

// pIC50 value for "CCCN(c1cc(OC)c(OC)c(OC)c1)c1n[nH]c2nc(OC)ccc12" : 5.20

====

# Test system: HepG2
# PROTOCOL TEXT: Antiproliferative activity against human HepG2 cells assessed as reduction in cell growth incubated for 72 hrs by MTT assay
# Type: functional, cell-based
# EXPERIMENTAL CONTEXT: HepG2, 72 h
The following compounds are shown together with reported IC50 values.
Give your result in µM as a bare value.

Recorded IC50, per entry:
COc1ccc(/C=C\c2cc(OC)c(OC)c(OC)c2)cc1O; 0.28
COc1ccc2c(Nc3cc(OC)c(OC)c(OC)c3)nn(C(C)C)c2n1; 20

// IC50 value for "COc1ccc2c(N(Cc3ccccc3)c3cc(OC)c(OC)c(OC)c3)n[nH]c2n1" : 7.38

====

# Tested on: MCF7
# PROTOCOL TEXT: Antiproliferative activity against human MCF7 cells assessed as reduction in cell growth incubated for 72 hrs by MTT assay
# Assay type: functional, cell-based
# EXPERIMENTAL CONTEXT: MCF7, 72 h
The following compounds are shown together with reported IC50 values.
Give your result in µM as a bare value.

Recorded IC50, per entry:
COc1ccc2c(Nc3cc(OC)c(OC)c(OC)c3)nn(C(C)C)c2n1; 13.2
COc1ccc2c(N(CC3CC3)c3cc(OC)c(OC)c(OC)c3)n[nH]c2n1; 2.35
COc1ccc2c(N(CC(F)F)c3cc(OC)c(OC)c(OC)c3)n[nH]c2n1; 21.7
COc1ccc2c(N(C)c3cc(OC)c(OC)c(OC)c3)n[nH]c2n1; 0.067
COc1ccc2c(Nc3cc(OC)c(OC)c(OC)c3)nn(C3CCCC3)c2n1; 22.4

// IC50 value for "CCCN(c1cc(OC)c(OC)c(OC)c1)c1n[nH]c2nc(OC)ccc12" : 1.37

// IC50 value for "CCN(c1cc(OC)c(OC)c(OC)c1)c1n[nH]c2nc(OC)ccc12" : 0.81

// IC50 value for "COc1ccc2c(N(Cc3ccccc3)c3cc(OC)c(OC)c(OC)c3)n[nH]c2n1" : 10.3

// IC50 value for "COc1ccc2c(N(CCF)c3cc(OC)c(OC)c(OC)c3)n[nH]c2n1" : 0.102

====

The following molecules are shown together with reported pIC50 values.
# System: MCF7
# PROTOCOL TEXT: Antiproliferative activity against human MCF7 cells assessed as reduction in cell growth incubated for 72 hrs by MTT assay
# Assay type: functional, cell-based
# EXPERIMENTAL CONTEXT: MCF7, 72 h
pIC50: −log10 of the molar value.

Recorded pIC50, per entry:
COc1ccc2c(N(c3cc(OC)c(OC)c(OC)c3)C3CCCC3)nn(C3CCCC3)c2n1; < 4.30
COc1ccc2c(N(c3cc(OC)c(OC)c(OC)c3)C3CCCC3)n[nH]c2n1; < 4.30

// pIC50 value for "COc1ccc2c(Nc3cc(OC)c(OC)c(OC)c3)nn(C)c2n1" : < 4.30
